Provide the reported pIC50 of each item.
target-entity: CDK4/CCND3 (Homo sapiens, UniProt P11802)
Sequence (P11802 whole entry): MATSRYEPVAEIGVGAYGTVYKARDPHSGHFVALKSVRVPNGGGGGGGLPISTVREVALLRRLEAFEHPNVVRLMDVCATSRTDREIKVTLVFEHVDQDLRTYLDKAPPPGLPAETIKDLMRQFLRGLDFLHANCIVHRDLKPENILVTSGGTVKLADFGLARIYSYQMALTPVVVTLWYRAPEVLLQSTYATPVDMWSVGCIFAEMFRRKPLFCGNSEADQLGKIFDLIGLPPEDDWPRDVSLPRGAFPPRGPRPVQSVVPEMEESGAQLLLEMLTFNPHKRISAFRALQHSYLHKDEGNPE
Sequence (P30281 whole entry partner): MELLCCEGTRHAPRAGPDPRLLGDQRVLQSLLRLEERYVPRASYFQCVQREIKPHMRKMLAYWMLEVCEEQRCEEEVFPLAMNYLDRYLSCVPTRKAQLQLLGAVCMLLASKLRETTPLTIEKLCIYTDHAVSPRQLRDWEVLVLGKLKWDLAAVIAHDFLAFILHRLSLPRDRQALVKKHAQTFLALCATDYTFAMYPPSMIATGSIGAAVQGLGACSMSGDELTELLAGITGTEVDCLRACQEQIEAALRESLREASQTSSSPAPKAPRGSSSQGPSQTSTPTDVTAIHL
assay-remarks: CDK4 homogeneous time-resolved fluorescence (HTRF) kinase assay
Format: biochemical
settings: CDK4/CCND; x = IC50 >250 nM; read-out: CDK4/CCND IC50 (>250 nM column)
pIC50: −log10 of the molar value.

These solved cases illustrate the format of a correct answer.
1. CS(=O)(=O)c1ccc(Nc2cc3c(C#Cc4cncc(Cl)c4N)nccc3cn2)cc1 [Ex 575]; < 6.60
2. COc1cc(S(C)(=O)=O)ccc1Nc1cc2c(C#Cc3ccc4c(c3)NC(=O)C43CC3)nccc2cn1 [Ex 375]; < 6.60
3. Cc1cnc(C#Cc2nccc3cnc(Nc4ccc(S(C)(=O)=O)cc4)cc23)cn1 [Ex 507]; < 6.60

Kindly note the recorded pIC50 for CS(=O)(=O)c1ccc(Nc2cc3c(C#Cc4ccc5[nH]c(=O)oc5c4)nccc3cn2)cc1 [Example 476] , which is < 6.60
